Cited source for all entries: patent US20050208041A1

Target: T1, IFNAR-1 on human cells (human, UniProt P17181 28-557)
T1 sequence (looked up): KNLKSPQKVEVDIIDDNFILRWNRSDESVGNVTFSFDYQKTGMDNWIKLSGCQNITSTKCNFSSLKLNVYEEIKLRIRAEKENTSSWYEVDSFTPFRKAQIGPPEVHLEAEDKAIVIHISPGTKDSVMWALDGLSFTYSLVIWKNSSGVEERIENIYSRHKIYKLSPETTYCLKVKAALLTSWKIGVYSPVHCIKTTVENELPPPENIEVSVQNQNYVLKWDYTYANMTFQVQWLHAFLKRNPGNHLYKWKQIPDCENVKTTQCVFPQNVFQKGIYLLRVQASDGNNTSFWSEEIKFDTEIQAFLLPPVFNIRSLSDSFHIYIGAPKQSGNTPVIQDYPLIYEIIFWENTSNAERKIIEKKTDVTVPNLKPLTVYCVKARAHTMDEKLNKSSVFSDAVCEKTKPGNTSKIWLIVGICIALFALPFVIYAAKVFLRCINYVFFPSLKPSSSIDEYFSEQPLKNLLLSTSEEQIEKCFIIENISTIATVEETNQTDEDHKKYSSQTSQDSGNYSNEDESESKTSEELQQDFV
Assay: cell-based or functional assay
Provide the recorded Cell Proliferation (Daudi) IC50, cells cultured with interferon α2b for the entries that follow.
Answers are plain numbers, in nM.

Reference set, count: 3
BINDER	OBSERVED_RESULT
murine monoclonal antibody 64G12 (antibody, V domains shown, Mouse IgG1, kappa light chain; also called 64G12 (mouse IgG1); murine anti-IFNAR-1 mAb 64G12) VH: QVTLKESGPGILKPSQTLSLTCSFSGFSLSTSGMGIGWIRQPSGKGLEWLAHIWWDDDKYYNPSLKSQLTISRDTSTNQVFLNITSVDTVDTATYYCGRNYYPYDAWFDYWGQGTLVTVS VL: EIVLTQSPTTMAASPGEKITITCSASSSINSNHLHWYQQKPGFSPKVLIYRTSILASGVPTRFSGSGSGTSYSLTIGTMEAEDVATYYCQQGSNIPFTFGSGTELEIKR	2.1
H3K1 (IgG1) (antibody, V domains shown) VH: EVQLVESGGGLVQPGGSLRLSCAFSGFTLSTSGMGIGWVRQAPGKGLEWVAHIWWDDDKYYNPSLKSRFTISRDTSKNTVYLQMNSLRAEDTAVYYCARNYYPYDAWFDYWGQGTLVTVS VL: DIQMTQSPSSLSASVGDRVTITCSASSSINSNHLHWYQQKPGKAPKLLIYRTSILASGVPSRFSGSGSGTSFTLTISSLQPEDFATYYCQQGSNIPFTFGQGTKVEIKR	3.9
H3K1 (IgG4) (antibody, V domains shown, also called H3K1 standard; humanized anti-IFNAR-1 mAb H3K1) VH: EVQLVESGGGLVQPGGSLRLSCAFSGFTLSTSGMGIGWVRQAPGKGLEWVAHIWWDDDKYYNPSLKSRFTISRDTSKNTVYLQMNSLRAEDTAVYYCARNYYPYDAWFDYWGQGTLVTVS VL: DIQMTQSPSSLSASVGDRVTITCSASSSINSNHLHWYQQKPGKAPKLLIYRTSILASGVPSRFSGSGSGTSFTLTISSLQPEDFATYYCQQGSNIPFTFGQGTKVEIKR	9.1

Now take the following binder into account.
// returns reported Cell Proliferation (Daudi) IC50, cells cultured with interferon α2b for input DI M3-B K1C (h IgG1) (antibody, V domains shown) VH: EVQLLESGGGLVQPGGSLRLSCAASGFTMSTSGMGIGWIRQTPGKGLEWVAHIWWDDDKYYNPSLKARFTISRDTSKNTLYLQMNSLRAEDTAVYYCARNYYPYDAWFDYWGQGTLVTVS VL: DIQMTQSPSSLSASVGDRVTITCSASTSINSNHLHWYQQKPGKAPKLLIYRTSILASGVPSRFSGSGSGTSFTLTISSLQPEDFATYYCQQGSNIPFTFGQGTKVEIKR
10
